Target: human GLP-1 receptor (Homo sapiens (Human))
Sequence (P43220 24-463): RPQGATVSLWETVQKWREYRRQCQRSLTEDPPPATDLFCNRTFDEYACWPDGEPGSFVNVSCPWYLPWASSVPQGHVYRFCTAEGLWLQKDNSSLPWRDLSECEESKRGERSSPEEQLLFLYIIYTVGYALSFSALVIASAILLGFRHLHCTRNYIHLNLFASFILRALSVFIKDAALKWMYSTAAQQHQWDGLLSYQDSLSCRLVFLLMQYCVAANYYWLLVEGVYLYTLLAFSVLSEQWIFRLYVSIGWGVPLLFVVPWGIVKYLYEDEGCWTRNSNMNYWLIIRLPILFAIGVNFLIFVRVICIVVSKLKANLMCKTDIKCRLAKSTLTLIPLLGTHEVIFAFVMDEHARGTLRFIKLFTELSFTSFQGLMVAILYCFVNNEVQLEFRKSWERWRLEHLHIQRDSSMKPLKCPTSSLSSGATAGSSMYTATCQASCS
Conditions: read-out: Mean EC50; cAMP, HTRF detection, 30 min at 37° C., HEK-293 cells expressing cloned human GLP-1 receptor
pEC50: −log10 of the molar value.
Decision: pEC50 compared against 7; not below it gives criterion met, below it gives criterion not met.

* CC[C@@H](c1ccccc1)N1Cc2cc3c(cc2C[C@H]1C(=O)N[C@@H](Cc1ccc(-c2ccnc(C)c2C)cc1)C(=O)O)OC[C@H](c1ccc(OCCN(C)C)cc1)O3 | criterion not met
* COc1cc(C)ccc1S(=O)(=O)N1Cc2cc3c(cc2C[C@H]1C(=O)N[C@@H](Cc1ccc(-c2ccc(C#N)cc2)cc1)C(=O)O)OC[C@H](c1ccc(OCc2ccc(Cl)c(Cl)c2)cc1)O3 | criterion not met
* Cc1nccc(-c2ccc(C[C@H](NC(=O)[C@@H]3Cc4cc5c(cc4CN3C(=O)NC(C)C)O[C@@H](c3ccc(OCc4ccc(Cl)c(Cl)c4)cc3)CO5)C(=O)O)cc2)c1C | criterion not met
* Cc1nccc(-c2ccc(C[C@H](NC(=O)[C@@H]3Cc4cc5c(cc4CN3C(=O)C3CCN(C(=O)OC(C)(C)C)CC3)O[C@@H](c3ccc(OCc4ccc(Cl)c(Cl)c4)cc3)CO5)C(=O)O)cc2)c1C | criterion met
* Cc1nc(C(=O)N2Cc3cc4c(cc3C[C@H]2C(=O)N[C@@H](Cc2ccc(-c3ccnc(C)c3C)cc2)C(=O)O)OC[C@H](c2ccc(OCc3cncc(Cl)c3)cc2)O4)c(C)o1 | criterion met

Task item: Quick check, pEC50 >= 7? Cc1nccc(-c2ccc(C[C@H](NC(=O)[C@@H]3Cc4cc5c(cc4CN3C(=O)c3ccccc3)O[C@@H](c3ccc(OCC4CCCC4)cc3)CO5)C(=O)O)cc2)c1C
Reply: criterion not met

Task item: Quick check, pEC50 >= 7? CCCCOC(=O)N1Cc2cc3c(cc2C[C@H]1C(=O)N[C@@H](Cc1ccc(Oc2ccnc(C)c2C)cc1)C(=O)O)OC[C@H](c1ccc(OCc2ccc(Cl)c(Cl)c2)cc1)O3
Reply: criterion not met

Task item: Quick check, pEC50 >= 7? Cc1nccc(-c2ccc(C[C@H](NC(=O)[C@@H]3Cc4cc5c(cc4CN3C(=O)Nc3ccccn3)O[C@@H](c3ccc(OCc4ccc(Cl)c(Cl)c4)cc3)CO5)C(=O)O)cc2)c1C
Reply: criterion not met

Measured values drawn from patent US9175003B2 for this set.
